target: Sodium/glucose cotransporter 2 (Homo sapiens, UniProt P31639); assay: Inhibition of human SGLT2 expressed in CHO-K1 cells assessed as reduction in [14C]-alpha-methylglucopyranoside uptake after 2 hrs by liquid scintillation counting
Sequence (P31639 whole entry): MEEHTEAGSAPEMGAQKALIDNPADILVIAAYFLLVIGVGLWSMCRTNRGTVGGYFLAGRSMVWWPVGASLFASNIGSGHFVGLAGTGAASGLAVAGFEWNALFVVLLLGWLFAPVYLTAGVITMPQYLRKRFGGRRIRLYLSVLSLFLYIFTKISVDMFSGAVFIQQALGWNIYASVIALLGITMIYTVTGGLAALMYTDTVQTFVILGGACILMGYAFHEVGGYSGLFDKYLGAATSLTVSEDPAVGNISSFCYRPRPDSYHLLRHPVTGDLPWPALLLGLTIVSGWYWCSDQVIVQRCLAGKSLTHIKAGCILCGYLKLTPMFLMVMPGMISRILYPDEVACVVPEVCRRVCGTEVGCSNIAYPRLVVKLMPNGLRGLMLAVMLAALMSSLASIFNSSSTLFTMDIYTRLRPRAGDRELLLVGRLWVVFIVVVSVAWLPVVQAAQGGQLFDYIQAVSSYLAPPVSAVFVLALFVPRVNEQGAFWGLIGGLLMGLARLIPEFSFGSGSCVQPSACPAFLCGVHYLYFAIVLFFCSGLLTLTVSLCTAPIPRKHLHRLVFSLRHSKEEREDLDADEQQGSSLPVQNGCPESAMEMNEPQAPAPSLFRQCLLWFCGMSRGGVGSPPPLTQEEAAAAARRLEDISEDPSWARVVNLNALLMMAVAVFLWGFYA
In this section, each of the compounds is paired with its reported EC50.
Quick note: give the figure in µM, leave out the unit.

Observe how each entry below is paired with its result.
[
  {
    "Compound": "COc1ccc(C(O)Cn2c(=N)n(Cc3ccccc3)c3ccccc32)cc1 (centres undefined)",
    "EC50 (µM)": 16.2
  },
  {
    "Compound": "N=c1n(Cc2ccccc2)c2ccccc2n1CC(O)c1cccs1 (centres undefined)",
    "EC50 (µM)": 19.1
  },
  {
    "Compound": "OC[C@H]1O[C@@H](Oc2cccc3[nH]cc(CCc4ccc5c(c4)CCO5)c23)[C@H](O)[C@@H](O)[C@@H]1O",
    "EC50 (µM)": 0.024
  }
]

Shifting focus to the compound that follows.
Data request: Sodium/glucose cotransporter 2 (Homo sapiens, UniProt P31639) / EC50 / C=CCn1c(=N)n(CC(O)C(C)(C)C)c2ccccc21 (centres undefined) : value?
Data returned: 40.4
